Reference for the values: PubChem BioAssay AID1902

- testedSystem: S. pyogenes SKKanGAS, kanamycin survival, BacTiterGlo, 6 h
- experimentSummary: S. pyogenes SKKanGAS kanamycin growth inhibitors – SKKanGAS strain, luminescence, dose confirmation, streptokinase promoter inhibitor project, dose response (AID 1902);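 further: lower survival reflects blocked streptokinase promoter driving kanamycin resistance gene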
The source made the active and inactive calls.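 How the source made its calls: active means EC50 no more than a set limit of log units above the highest dose; inactive means the rest.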
Outcomes you can answer with include only these: Y for active, N for inactive

Reference set, count: 10
compound: Cc1nc(N/N=C\c2ccc3c(c2)OCO3)sc1C
testedSystem: S. pyogenes SKKanGAS, kanamycin survival, BacTiterGlo, 6 h
className: Y
--
compound: O=C(NC(=S)Nc1ccc(N2CCOCC2)c(Cl)c1)c1cccs1
testedSystem: S. pyogenes SKKanGAS, kanamycin survival, BacTiterGlo, 6 h
className: Y
--
compound: COc1ccc(Cl)cc1/C=C/c1ccc2cccc(O)c2n1
testedSystem: S. pyogenes SKKanGAS, kanamycin survival, BacTiterGlo, 6 h
className: Y
--
compound: Cc1ccnc(NC(=S)N2CCN(c3cccc(C(F)(F)F)c3)CC2)c1
testedSystem: S. pyogenes SKKanGAS, kanamycin survival, BacTiterGlo, 6 h
className: Y
--
compound: CCOc1cc(/C=N/Nc2cccc(C(=O)O)c2)ccc1OC(=O)c1ccccc1
testedSystem: S. pyogenes SKKanGAS, kanamycin survival, BacTiterGlo, 6 h
className: Y
--
compound: O=[N+]([O-])c1cccnc1N1CCC(c2cc(-c3ccc(Cl)cc3)n[nH]2)CC1
testedSystem: S. pyogenes SKKanGAS, kanamycin survival, BacTiterGlo, 6 h
className: Y
--
compound: Cc1cn(-c2cc(C(=O)Nc3ccc(C)c(NC(=O)C(=O)c4c[nH]c5ccccc45)c3)cc(C(F)(F)F)c2)cn1
testedSystem: S. pyogenes SKKanGAS, kanamycin survival, BacTiterGlo, 6 h
className: Y
--
compound: Cc1ccc(SC/C(O)=C(\C#N)c2nc3ccccc3s2)cc1
testedSystem: S. pyogenes SKKanGAS, kanamycin survival, BacTiterGlo, 6 h
className: Y
--
compound: O=C(NCc1ccc(C(F)(F)F)cc1)c1ccc2c(c1)S(=O)(=O)c1ccccc1C2=O
testedSystem: S. pyogenes SKKanGAS, kanamycin survival, BacTiterGlo, 6 h
className: N
--
compound: O=C(N/N=C/c1cc(Br)cc([N+](=O)[O-])c1O)c1ccc(NC(=O)c2ccc(F)cc2)cc1
testedSystem: S. pyogenes SKKanGAS, kanamycin survival, BacTiterGlo, 6 h
className: Y

Next, consider the following compound.
Lookup: Please let me know the test result on file for `Cc1noc(NS(=O)(=O)c2ccc(NC(=O)c3oc4ccc(Cl)cc4c3C)cc2)c1C` .
Found: Y

----------
- testedSystem: S. pyogenes SKKanGAS, kanamycin survival, BacTiterGlo, 6 h
- experimentSummary: S. pyogenes SKKanGAS kanamycin growth inhibitors – SKKanGAS strain, luminescence, dose confirmation, streptokinase promoter inhibitor project, dose response (AID 1902);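 further: lower survival reflects blocked streptokinase promoter driving kanamycin resistance gene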
Activity calls are given as the source filed them.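 Rule for the calls: active = EC50 no more than a set limit of log units above the highest dose; inactive = the rest.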
Outcomes you can answer with include only these: active, inactive

Reference set, count: 5
molecule: Cc1ccccc1Oc1nc(-c2ccccn2)nc2ccccc12
className: active

molecule: Cc1c(C(=O)Nc2nonc2-c2ccc(F)cc2)oc2ccc(F)cc12
className: active

molecule: COc1ccc(C(=O)c2c(C(F)(F)F)oc3c2C(=O)c2ccccc2C3=O)cc1OC
className: active

molecule: CCOC(=O)c1c(NC(=O)c2c(N)n(CCCOC)c3nc4ccccc4nc23)sc2c1CCCC2
className: active

molecule: CC(C)C[C@H](NC(=O)c1nc[nH]c1C(=O)N[C@@H](CC(C)C)C(=O)OC(C)(C)C)C(=O)OCc1ccccc1
className: active

Lookup: Please let me know the test result on file for `CCCCNC(=O)c1ccc(NC(C)=O)c(Cl)c1` .
Found: inactive

Lookup: Please let me know the test result on file for `COc1cc(/C=C/c2ccc3cccc(O)c3n2)cc(OC)c1OC` .
Found: active

Lookup: Please let me know the test result on file for `Cc1cccc(Nc2nc(-c3ccc(F)c(C)c3)cs2)n1` .
Found: active

Lookup: Please let me know the test result on file for `CCOC(=O)N1CCN(C(=O)c2ccc3c(c2)NC(=O)/C(=C/c2ccccc2)S3)CC1` .
Found: active

Lookup: Please let me know the test result on file for `CCCN(CCC)c1nc(-c2ccccn2)nc2ccccc12` .
Found: active

Lookup: Please let me know the test result on file for `CCN(CC)c1ccc(C(=O)OCc2cc(=O)oc3cc(O)ccc23)cc1` .
Found: active

Lookup: Please let me know the test result on file for `Cc1ccc(OCCn2c(=S)[nH]c3ccccc32)c(C(C)C)c1` .
Found: active

Lookup: Please let me know the test result on file for Brc1cc2c(cc1C1Nc3ccccc3C3C=CCC31)OCO2 (stereo unspecified) .
Found: active

Lookup: Please let me know the test result on file for CNC(=O)c1c(NC(=O)c2ccc(N3C(=O)CCC3=O)cc2)sc2c1CCC(C)C2 (stereo unspecified) .
Found: active

Lookup: Please let me know the test result on file for `CCOc1ccc(C)cc1S(=O)(=O)NC1CCCCCC1` .
Found: inactive

Lookup: Please let me know the test result on file for `O=C(O)c1ccc(CSc2nc(-c3ccc(Cl)cc3)cc(C(F)(F)F)n2)cc1` .
Found: active

Lookup: Please let me know the test result on file for `O=C(Nc1cccc(Cl)c1N1CCCCC1)c1ccc2c(c1)OCCO2` .
Found: active

Lookup: Please let me know the test result on file for `O=C(N/N=C/c1cc([N+](=O)[O-])ccc1O)c1cccc(NC(=O)c2cccc(Cl)c2)c1` .
Found: active

Lookup: Please let me know the test result on file for COc1ccc([N+](=O)[O-])cc1NC(=S)NC(NC(=O)C(c1ccccc1)c1ccccc1)C(Cl)(Cl)Cl (stereo unspecified) .
Found: active

Lookup: Please let me know the test result on file for `CC(C)N=c1cc2n(-c3ccc(Cl)cc3)c3ccccc3nc-2cc1Nc1ccc(Cl)cc1` .
Found: active

Lookup: Please let me know the test result on file for `Cc1nn2c(COc3ccc(NC(=O)c4ccccc4)cc3)nnc2c2ccccc12` .
Found: active
